Source listed as patent US6191135A.

log10(Ki) values for the compounds below.
# tgt: NK1 -receptor (substance P-receptor) (Homo sapiens)
# Construct: intact human lymphoblastoma cells (IM-9) which express NK1 -receptors; endogenous in cells; host or cells: IM-9 human lymphoblastoma cells
# Sequence (P25103 whole entry): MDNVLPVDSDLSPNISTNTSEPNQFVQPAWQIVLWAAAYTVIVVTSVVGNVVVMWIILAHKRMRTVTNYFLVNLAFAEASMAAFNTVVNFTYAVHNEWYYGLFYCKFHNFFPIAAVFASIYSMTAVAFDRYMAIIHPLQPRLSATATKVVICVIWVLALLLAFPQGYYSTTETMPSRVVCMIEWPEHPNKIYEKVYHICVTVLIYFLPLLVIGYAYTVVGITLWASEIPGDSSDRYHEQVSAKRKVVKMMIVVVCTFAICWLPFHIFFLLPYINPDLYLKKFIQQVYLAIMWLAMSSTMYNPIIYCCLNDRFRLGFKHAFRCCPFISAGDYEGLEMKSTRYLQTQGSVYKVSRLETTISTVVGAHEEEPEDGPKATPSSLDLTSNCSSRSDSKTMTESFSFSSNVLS
# test_description: NK1-receptor affinity: displacement of 125I labelled substance P on intact human lymphoblastoma cells (IM-9)
# Format: binding
# measurement_setup: intact human lymphoblastoma cells (IM-9) expressing NK1-receptors, read-out: Ki
measured_endpoint: log10(Ki) (log10 of the value in nM)

[[record]]
compound = "COc1ccccc1C(CNC(=O)Nc1cc(C(F)(F)F)cc(C(F)(F)F)c1)N1CCC(N2CCCCC2)CC1 (centres unmarked) [Example 177]"
experimental_value = 1.00

[[record]]
compound = "CN1CCN(C(CNCc2cc(C(F)(F)F)cc(C(F)(F)F)c2)c2ccccc2)CC1 (centres unmarked) [Example 30]"
experimental_value = 1.95

[[record]]
compound = "O=C(NCC(c1ccccc1)N1CCN(Cc2ccccc2)CC1)Nc1cc(C(F)(F)F)cc(C(F)(F)F)c1 (centres unmarked) [Example 146]"
experimental_value = 2.06

[[record]]
compound = "COc1ccccc1C(CNC(=O)Nc1cc(C(F)(F)F)cc(C(F)(F)F)c1)N1C2CCCC1CC2 (centres unmarked) [Example 176]"
experimental_value = 1.96

[[record]]
compound = "COc1ccccc1C(CNCc1cc(C(F)(F)F)cc(C(F)(F)F)c1)N1CCN(C2CCCC2)CC1 (centres unmarked) [Example 35]"
experimental_value = 1.20

[[record]]
compound = "COc1ccccc1C(CNCc1cc(C(F)(F)F)cc(C(F)(F)F)c1)N1CCN(Cc2ccc3c(c2)OCO3)CC1 (centres unmarked) [Example 27]"
experimental_value = 2.05

[[record]]
compound = "COc1ccccc1C(CNC(=O)Nc1cc(C(F)(F)F)cc(C(F)(F)F)c1)N1CCN(CCC2CCCCC2)CC1 (centres unmarked) [Example 121]"
experimental_value = 2.09

[[record]]
compound = "COc1ccccc1C(CNCc1cc(C(F)(F)F)cc(C(F)(F)F)c1)N1CCN(C(C)c2ccccc2)CC1 (centres unmarked) [Example 23]"
experimental_value = 2.03

[[record]]
compound = "COc1ccccc1C(CNC(=O)Nc1cc(C(F)(F)F)cc(C(F)(F)F)c1)N1CCN(C2CCCC2)CC1 (centres unmarked) [Example 111]"
experimental_value = 1.08

[[record]]
compound = "COc1ccccc1C(CNC(=O)c1cc(C(F)(F)F)cc(C(F)(F)F)c1)N1CCN(C2CCCCC2)CC1 (centres unmarked) [Example 67]"
experimental_value = 1.15

[[record]]
compound = "CN1CCN(C(CNC(=O)Nc2cc(C(F)(F)F)cc(C(F)(F)F)c2)c2ccccc2)CC1 (centres unmarked) [Example 105]"
experimental_value = 1.89

